read-out: Cytochrome P450 4A22 (Homo sapiens) (UniProt Q5TCH4); assay: LTEA_HepaRG_CYP4A22: Life Technologies and Expression Analysis (LTEA) Assay for Cytochrome P450 4A22 (CYP4A22) using HepaRG (AID 2283495); conditions: mRNA level, 48 h; actives raise or lower the signal
The source made the active and inactive calls. How the source made its calls: active means hit-call score of the fitted dose curve at least 0.9, where 1 is the maximum; inactive means score below 0.9.
Reply using exactly one outcome from 1.0 (active), 0.0 (inactive)

Just curious, what result did CCCCCCCCCCCCCN1CC(C)OC(C)C1 (configuration not stated) get here? 0.0

Further cases:
Just curious, what result did O=Cc1ccco1 get here? 0.0

Just curious, what result did CN(C)C(=O)Nc1ccc(Cl)cc1 get here? 0.0

Just curious, what result did ClC1=C(Cl)C2(Cl)C3C(Cl)C=CC3C1(Cl)C2(Cl)Cl (configuration not stated) get here? 1.0

Just curious, what result did CS(=O)(=O)NC(=O)c1cc(Oc2ccc(C(F)(F)F)cc2Cl)ccc1[N+](=O)[O-] get here? 0.0

Just curious, what result did c1ccc(NNc2ccccc2)cc1 get here? 0.0

Just curious, what result did CC(C)(C)OOC(C)(C)CCC(C)(C)OOC(C)(C)C get here? 0.0

====

target: rat Histamine Receptor (H3), Hrh3 (gene 85268); assay: NVS_GPCR_rH3: NovaScreen (NVS) G Protein-Coupled Receptor Assay for rat Histamine Receptor (H3) (AID 2283303)
Inconclusive results are not listed. Calls of active or inactive are those of the source. The calls were made as follows: active = hit-call score of the fitted dose curve at least 0.9, where 1 is the maximum; inconclusive = response in the unintended direction; inactive = score below 0.9.
Reply using exactly one outcome from Yes (active), No (inactive)

A selection of reference data follows.
Just curious, what result did CCCCCCCCn1sccc1=O get here? Yes

Just curious, what result did CC(C)(C)OOC(=O)c1ccccc1 get here? No

Just curious, what result did CCOC(=O)[C@]1(c2ccccc2)Oc2ccccc2[C@@H]1N get here? Yes

Further cases:
Just curious, what result did O=C(Oc1ccc(Br)cc1)N1CCN2CCC1CC2 get here? Yes

====

experiment: TAMU_PeakParms_SingleDonor1434_QT: Texas A&M University (TAMU) 1.5-hr Human Induced Pluripotent Stem Cell (iPSC)-derived Cardiomyocytes Calcium (Ca+2) Flux Assay for Cardiotoxicity: QT (decay-rise ratio) (AID 2284235)
Results filed as inconclusive are left out. The source made the active and inactive calls. Rule for the calls: active = hit-call score of the fitted dose curve at least 0.9, where 1 is the maximum; inconclusive = response in the unintended direction; inactive = score below 0.9.
Reply using exactly one outcome from active, inactive

Just curious, what result did CC(C)(C)C(O)(CCc1ccc(Cl)cc1)Cn1cncn1 (centres undefined) get here? active

Just curious, what result did Clc1ccc(C(c2ccc(Cl)cc2)C(Cl)(Cl)Cl)cc1 get here? inactive

Just curious, what result did ClC1=C(Cl)C2(Cl)C3C(Cl)C=CC3C1(Cl)C2(Cl)Cl (centres undefined) get here? inactive

Just curious, what result did ClC1=C(Cl)[C@]2(Cl)[C@H]3[C@H]([C@@H]4C=C[C@H]3C4)[C@@]1(Cl)C2(Cl)Cl get here? inactive

====

read-out: Plasminogen activator inhibitor-1 (PAI1), SERPINE1 (gene 5054); test: BSK_hDFCGF_PAI1: BioMAP Diversity Plus: hDFCGF Assay for Plasminogen activator inhibitor-1 (PAI1) Biomarker Activity (AID 2283066); conditions: primary human foreskin fibroblasts; actives raise or lower the signal
Calls of active or inactive are those of the source. How the source made its calls: active means hit-call score of the fitted dose curve at least 0.9, where 1 is the maximum; inactive means score below 0.9.
Reply using exactly one outcome from active, inactive

A selection of reference data follows.
Just curious, what result did Clc1ccccc1Cl get here? inactive

Just curious, what result did Oc1ccccc1Cl get here? inactive

Just curious, what result did CCC(C)c1ccc(O)cc1 (stereo unspecified) get here? inactive

Further cases:
Just curious, what result did Clc1ccc(Cl)c(Cl)c1 get here? inactive

Just curious, what result did O=[N+]([O-])C(Br)(CO)CO get here? active

Just curious, what result did [O-][Cl+]O get here? inactive

Just curious, what result did CCCSC(=O)N(CCC)CCC get here? inactive

Just curious, what result did CCCCCCCCOC(=O)c1ccc(C(=O)OCCCCCCCC)c(C(=O)OCCCCCCCC)c1 get here? inactive

Just curious, what result did CC(C)N(Cc1ccccc1)C(=O)C(C)(C)C get here? inactive

Just curious, what result did OCCCl get here? inactive

====

read-out: Cytochrome P450 3A4 (Homo sapiens); test: LTEA_HepaRG_CYP3A4: Life Technologies and Expression Analysis (LTEA) Assay for CYP3A4 using HepaRG (AID 2283487); conditions: mRNA level, 48 h; actives raise or lower the signal
The source made the active and inactive calls. The calls were made as follows: active = hit-call score of the fitted dose curve at least 0.9, where 1 is the maximum; inactive = score below 0.9.
Reply using exactly one outcome from 1 (active), -1 (inactive)

Just curious, what result did CC(C)(C)OOC(C)(C)CCC(C)(C)OOC(C)(C)C get here? -1

Just curious, what result did CCCCCOC(=O)c1ccccc1C(=O)OCCCCC get here? -1

Just curious, what result did CCC[CH2][Sn]([Cl])([CH2]CCC)[CH2]CCC get here? 1

Just curious, what result did CC(O)CCO (configuration not stated) get here? -1

Just curious, what result did C=CCc1ccc2c(c1)OCO2 get here? -1

Just curious, what result did Nc1ccc([N+](=O)[O-])cc1 get here? -1

Further cases:
Just curious, what result did CCN(CC)N=O get here? -1

Just curious, what result did CNC(=O)Oc1cccc2c1OC(C)(C)C2 get here? 1

Just curious, what result did Clc1ccccc1Cl get here? -1

Just curious, what result did Clc1ccc(Cl)c(Cl)c1 get here? -1

Just curious, what result did O=Cc1ccco1 get here? -1

Just curious, what result did ClC1=C(Cl)C2(Cl)C3C(Cl)C=CC3C1(Cl)C2(Cl)Cl (configuration not stated) get here? 1

Just curious, what result did COC(=O)c1ccccc1N get here? -1

====

test: CCTE_Deisenroth_5AR_NBTE_acceptor: CCTE's 5alpha-reductase NanoBRET Target Engagement Assay - Autofluorescence Screen, Deisenroth Lab (AID 2284321); settings: actives raise or lower the signal;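 further: compound fluorescence in the acceptor channel under 460 nm excitation flags autofluorescence artifacts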
Activity calls are given as the source filed them. Rule for the calls: active = hit-call score of the fitted dose curve at least 0.9, where 1 is the maximum; inactive = score below 0.9.
Reply using exactly one outcome from active, inactive

A selection of reference data follows.
Just curious, what result did COc1cc(C=O)cc2c1[C@H](COC(N)=O)[C@]1(OC(C)=O)ON2C[C@H]2[C@@H]1N2C(C)=O get here? inactive

Just curious, what result did C[C@]12C=CC3=C4CCC(=O)C=C4CC[C@H]3[C@@H]1CC[C@@H]2O get here? inactive

Just curious, what result did Nc1ccc(N=Nc2ccccc2)cc1 get here? inactive

Further cases:
Just curious, what result did CCC[CH2][Sn]([Cl])([CH2]CCC)[CH2]CCC get here? active

Just curious, what result did [Cl-].[Cl-].[Hg+2] get here? active

Just curious, what result did Cc1ccc(N)c(N)c1 get here? active

Just curious, what result did Cc1cc(N=Nc2ccccc2C)ccc1N get here? active

====

target: guinea pig Opioid, Kappa 1 Receptor (OpiateK), OPRK1 (gene 100135587) (UniProt P41144); experiment: NVS_GPCR_gOpiateK: NovaScreen (NVS) G Protein-Coupled Receptor Assay for guinea pig Opioid, Kappa 1 Receptor (OpiateK) (AID 2283252);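 further: radioligand displacement from kappa opioid receptor in guinea pig cerebellar membranes; active means reduced radioligand binding relative to DMSO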
Sequence (P41144 whole entry, looked up): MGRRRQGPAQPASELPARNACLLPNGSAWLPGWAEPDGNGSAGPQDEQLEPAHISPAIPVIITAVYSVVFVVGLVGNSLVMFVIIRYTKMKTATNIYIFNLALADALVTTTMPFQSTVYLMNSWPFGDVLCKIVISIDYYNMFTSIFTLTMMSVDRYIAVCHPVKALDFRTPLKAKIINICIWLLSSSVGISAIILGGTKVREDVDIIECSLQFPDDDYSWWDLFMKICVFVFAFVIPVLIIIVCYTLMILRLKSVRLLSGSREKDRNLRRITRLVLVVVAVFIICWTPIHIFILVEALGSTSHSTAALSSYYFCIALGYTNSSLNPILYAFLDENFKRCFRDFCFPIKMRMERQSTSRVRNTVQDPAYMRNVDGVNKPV
Inconclusive results are not listed. Active and inactive are the calls of the source. How the source made its calls: active means hit-call score of the fitted dose curve at least 0.9, where 1 is the maximum; inconclusive means response in the unintended direction; inactive means score below 0.9.
Reply using exactly one outcome from active, inactive

Just curious, what result did CCCCCCCCn1sccc1=O get here? active

Further cases:
Just curious, what result did CCCSC(=O)N(CCC)CCC get here? inactive

Just curious, what result did CC(C)N(Cc1ccccc1)C(=O)C(C)(C)C get here? active

Just curious, what result did CCC[CH2][Sn]([Cl])([CH2]CCC)[CH2]CCC get here? active

Just curious, what result did [Cl-].[Cl-].[Hg+2] get here? active

====

assay: BSK_SAg_Proliferation: Cell Proliferation Assessment in the BioMAP Diversity Plus: SAg Assay (AID 2283095); conditions: primary human HUVEC with PBMC;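 further: relative cell number as total protein by SRB absorbance in sub-confluent culture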
Calls of active or inactive are those of the source. Rule for the calls: active = hit-call score of the fitted dose curve at least 0.9, where 1 is the maximum; inactive = score below 0.9.
Reply using exactly one outcome from active, inactive

Just curious, what result did Cc1cc(N=Nc2ccccc2C)ccc1N get here? active

Further cases:
Just curious, what result did CN(C)c1ccc(C(=O)c2ccc(N(C)C)cc2)cc1 get here? active

Just curious, what result did CO[C@@H]1[C@H](OC(=O)NC(=O)CCl)CC[C@]2(CO2)[C@H]1[C@@]1(C)O[C@@H]1CC=C(C)C get here? active

Just curious, what result did Cc1ccc(N)c(N)c1 get here? inactive

====

read-out: MicroRNA 122 (MIR122), gene 406906; assay: LTEA_HepaRG_MIR122: Life Technologies and Expression Analysis (LTEA) Assay for MicroRNA 122 (MIR122) using HepaRG (AID 2283516); details: mRNA level, 48 h; actives raise or lower the signal; further: the transcript read is the microRNA miR-122
Activity calls are given as the source filed them. How the source made its calls: active means hit-call score of the fitted dose curve at least 0.9, where 1 is the maximum; inactive means score below 0.9.
Reply using exactly one outcome from YES = active, NO = inactive

A selection of reference data follows.
Just curious, what result did [O-][Cl+]O get here? NO

Just curious, what result did CS(=O)(=O)NC(=O)c1cc(Oc2ccc(C(F)(F)F)cc2Cl)ccc1[N+](=O)[O-] get here? NO

Further cases:
Just curious, what result did Clc1ccccc1Cl get here? NO

Just curious, what result did Clc1ccc(Cl)c(Cl)c1 get here? NO

Just curious, what result did Nc1ccc(Cl)cc1N get here? YES

====

assay: ATG_VDRE_CIS: Attagene CIS-FACTORIAL HepG2 Assay for human Vitamin D Receptor Element (VDRE) (AID 2282968); details: HepG2 VDRE cis-reporter transcription, actives raise or lower the signal
Active and inactive are the calls of the source. Rule for the calls: active = hit-call score of the fitted dose curve at least 0.9, where 1 is the maximum; inactive = score below 0.9.
Reply using exactly one outcome from true (1) for active, false (0) for inactive

A selection of reference data follows.
Just curious, what result did ClC1=C(Cl)[C@]2(Cl)[C@H]3[C@H]([C@@H]4C=C[C@H]3C4)[C@@]1(Cl)C2(Cl)Cl get here? true (1)

Just curious, what result did OCCCBr get here? false (0)

Further cases:
Just curious, what result did CC(C)(OOC(C)(C)c1ccccc1)c1ccccc1 get here? true (1)
